Tested target: T1, P2-AA-12HAA-Y
T1 chain: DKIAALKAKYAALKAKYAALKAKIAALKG
Procedure details: two-hybrid library CCmax;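 note: natural log of median RNA to DNA barcode read ratio; higher means stronger binding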
Test parameters: mean of both orientations
I'd be grateful if you could share measured interaction score for these entries.
One number for each entry.

Binder: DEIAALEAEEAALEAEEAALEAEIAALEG [P1-AA-12HAA-E]
interaction score: -0.0466

For each of the binders below, note its interaction score.
1. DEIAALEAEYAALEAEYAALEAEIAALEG [P1-AA-12HAA-Y]
2. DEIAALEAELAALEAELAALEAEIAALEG [P1-AA-12HAA-L]

[2.02, 1.68]

For each of the items listed, what is its interaction score?
1. DEIAALEAETAALEAETAALEAEIAALEG [P1-AA-12HAA-T]
2. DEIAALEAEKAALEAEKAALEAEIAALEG [P1-AA-12HAA-K]
3. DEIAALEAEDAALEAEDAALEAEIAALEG [P1-AA-12HAA-D]
4. DEIAALEAEVAALEAEVAALEAEIAALEG [P1-AA-12HAA-V]
5. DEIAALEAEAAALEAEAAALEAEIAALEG [P1-AA-12HAA-A]

1. 1.53
2. 0.916
3. -1.44
4. 1.8
5. 2

For every listed record, write down its interaction score.
1. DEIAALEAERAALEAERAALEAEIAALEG [P1-AA-12HAA-R]
2. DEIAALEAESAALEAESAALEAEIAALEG [P1-AA-12HAA-S]
3. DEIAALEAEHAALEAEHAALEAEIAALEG [P1-AA-12HAA-H]
4. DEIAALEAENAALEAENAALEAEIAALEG [P1-AA]

[0.106, 0.635, -0.416, 1.57]

Read the entry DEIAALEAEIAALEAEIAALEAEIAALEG [P1-AA-12HAA-I] and write its reported interaction score.
1.87
